tgt: biotinylated RSK1 725-735 peptide, unphosphorylated (human)
assay.protocol: holdup assay
pKd: −log10 of the molar value.
assay.readout: pKd

PDZ domain of ARHGEF11 (from UniProt O15085 47-126) (domain or fragment): 4.39
MBP-fused PDZ domain of ARHGEF12 (from UniProt Q9NZN5 72-151) (domain or fragment): 5.38
